test: qHTS for differential inhibitors of proliferation of Plasmodium falciparum line W2 (AID 1883); conditions: Plasmodium falciparum W2 proliferation inhibition; series mostly up to 28.7 µM;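 note: parasites grown with compound for 72 h before lysis and staining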
Inconclusive results are not listed. The source made the active and inactive calls. Calls come from the whole dose curve; as a rule, active = well fitted curve in the direction sought with a large enough effect; inconclusive = small, poorly fitted or top-dose-only effect, or another doubt; inactive = no such curve, though single readings can be large or run the other way.
Returns: one label drawn from Yes = active, No = inactive

Q) Write down the call the test reported for this molecule. Item: "CCCCC#Cc1nc(N)c2ncn([C@@H]3O[C@H](C(=O)NCC)[C@@H](O)[C@H]3O)c2n1"
A) Yes

Q) Item: "O=C(Cc1ccc(Cl)c(Cl)c1)OCCN1CCCC1"
A) No

Q) Item: Cc1ccccc1N1CCN(S(=O)(=O)C[C@]23CCC(CC2NC(=O)[C@@H](N)CCS(C)(=O)=O)C3(C)C)CC1 (stereo partly drawn)
A) Yes
